# test.target: PIK3CD (human) (UniProt O00329)
# Sequence (O00329 whole entry, looked up): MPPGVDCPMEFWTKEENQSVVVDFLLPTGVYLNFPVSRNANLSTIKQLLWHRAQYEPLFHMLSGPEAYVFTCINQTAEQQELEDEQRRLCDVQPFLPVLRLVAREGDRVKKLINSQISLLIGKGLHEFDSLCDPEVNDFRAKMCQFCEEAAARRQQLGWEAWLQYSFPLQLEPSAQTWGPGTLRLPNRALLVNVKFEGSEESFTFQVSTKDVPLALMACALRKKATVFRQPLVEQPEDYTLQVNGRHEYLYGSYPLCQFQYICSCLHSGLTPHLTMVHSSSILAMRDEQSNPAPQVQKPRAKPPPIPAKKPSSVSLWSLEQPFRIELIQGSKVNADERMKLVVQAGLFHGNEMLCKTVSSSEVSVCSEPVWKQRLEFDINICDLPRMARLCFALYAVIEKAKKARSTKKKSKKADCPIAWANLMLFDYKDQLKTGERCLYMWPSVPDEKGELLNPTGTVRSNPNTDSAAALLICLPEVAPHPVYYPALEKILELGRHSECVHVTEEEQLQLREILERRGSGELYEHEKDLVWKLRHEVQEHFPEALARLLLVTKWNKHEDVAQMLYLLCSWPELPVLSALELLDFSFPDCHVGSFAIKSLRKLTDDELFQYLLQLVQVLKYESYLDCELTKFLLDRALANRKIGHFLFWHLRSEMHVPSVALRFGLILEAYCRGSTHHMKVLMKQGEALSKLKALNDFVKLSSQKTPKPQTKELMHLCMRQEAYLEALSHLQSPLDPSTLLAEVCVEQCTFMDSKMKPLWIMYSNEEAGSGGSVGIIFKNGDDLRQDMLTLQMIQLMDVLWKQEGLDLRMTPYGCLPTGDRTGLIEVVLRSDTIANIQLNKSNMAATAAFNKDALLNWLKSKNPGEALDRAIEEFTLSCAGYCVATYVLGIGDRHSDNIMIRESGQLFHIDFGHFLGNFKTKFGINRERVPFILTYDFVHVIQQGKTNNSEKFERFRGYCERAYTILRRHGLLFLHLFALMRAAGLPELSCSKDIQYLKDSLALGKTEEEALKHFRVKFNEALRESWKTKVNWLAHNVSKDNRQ
# test.method.notes: KINOMEscan competition binding
# condition.info: compound 10.0 µM
Doc: threshold 30% (exclusive). Items with kinase still bound, per cent of control beneath it return rule met; others return rule not met.

Does the reported kinase still bound, per cent of control of N=C1NC(=O)/C(=C/c2ccc(-c3ccc(C(N)=O)cc3O)o2)S1 stay below 30%?
rule met

Also, O=C1NC(=O)/C(=C/c2c[nH]c(=O)c(-c3ccc(N4CCNCC4)nc3)c2)S1 please.
rule met

Would you mind doing COc1cc(N2CCN(C)CC2)ccc1Nc1ncc2c(n1)Nc1ccccc1NC2=O as well?
rule not met

Further, for CN1CCN(c2ccc(C(=O)Nc3ncc4c(n3)N(C)c3ccccc3C(=O)N4C)cc2)CC1 ?
rule not met

Quick one: COc1cc(N2CCC(O)CC2)ccc1Nc1ncc2c(n1)N1CCc3cccc(c31)C(=O)N2C
rule not met

Repeat with O=C1NC(=O)/C(=C/c2ccc(-c3ccc(F)cc3O)o2)S1
rule met

Subsequent entry: CN1C(=O)c2ccccc2N(C)c2nc(Nc3ccc(N4CCC(O)CC4)cn3)ncc21
rule not met

Please answer likewise for COc1cc(N2CCN(C)CC2)ccc1Nc1ncc2c(n1)N(C)c1sccc1C(=O)N2C
rule not met

Then this compound: NS(=O)(=O)c1ccc(-c2ccc(/C=C3\SC(=O)NC3=O)o2)cc1
rule not met

Note, next up: COc1cc(N2CCN(C)CC2)ccc1Nc1ncc2c(n1)N(C)c1ccccc1C(=O)N2C
rule not met

Let us now turn to O=C1NC(=O)C(=Cc2ccc(-c3ccc(S(=O)(=O)N4CCNCC4)cc3)o2)C(=O)N1
rule met

---

# test.target: CSNK1D (human) (UniProt P48730)
# Sequence (P48730 whole entry, looked up): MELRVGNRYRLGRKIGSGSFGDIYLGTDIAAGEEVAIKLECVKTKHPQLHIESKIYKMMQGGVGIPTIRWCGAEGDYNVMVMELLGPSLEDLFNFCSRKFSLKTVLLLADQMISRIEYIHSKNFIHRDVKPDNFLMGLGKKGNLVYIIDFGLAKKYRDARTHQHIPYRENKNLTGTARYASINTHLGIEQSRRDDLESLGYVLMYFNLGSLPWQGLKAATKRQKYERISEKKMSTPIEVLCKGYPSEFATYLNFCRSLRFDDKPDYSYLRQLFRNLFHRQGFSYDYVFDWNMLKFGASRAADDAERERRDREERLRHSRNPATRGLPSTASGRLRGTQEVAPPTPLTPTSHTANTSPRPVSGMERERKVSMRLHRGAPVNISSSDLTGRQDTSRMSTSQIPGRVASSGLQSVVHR
# test.method.notes: KINOMEscan competition binding
# condition.info: compound 10.0 µM
property.name: kinase still bound, per cent of control (%)
Kindly answer with a numeric value in %, unit omitted.

Kindly state the measured kinase still bound, per cent of control obtained for CN1C(=O)[C@H]2CCC[C@H]2N(C2CCCC2)c2nc(Nc3ccc4ncccc4c3)ncc21 with CSNK1D (human) (UniProt P48730).
4.3

Now consider COc1cc(N2CCC(O)CC2)ccc1Nc1ncc2c(n1)N1CCc3cccc(c31)C(=O)N2C and answer again.
60

Please give the result for Nc1cccc(-c2cc(/C=C3\SC(=O)NC3=O)c[nH]c2=O)c1 too.
23

// query: N=C1NC(=O)/C(=C/c2ccc(-c3cncc4ccccc34)o2)S1
3.4

Entry to check: COc1cc(N2CCN(C)CC2)ccc1Nc1ncc2c(n1)N(C)c1ccccc1N(C)C2=O
76

Record: CN1C(=O)c2ccccc2N(C)c2nc(NS(=O)(=O)c3ccc(N)cc3)ncc21
82

And N=C1NC(=O)/C(=C/c2ccc(-c3ccc(F)cc3O)o2)S1 ?
24

Follow-up entry: CN1CCN(c2ccc(C(=O)Nc3ncc4c(n3)N(C)c3ccccc3C(=O)N4C)cc2)CC1
85

Same thing, different compound: N=C1NC(=O)/C(=C/c2ccc(-c3csc4ccccc34)o2)S1
34

Quick one: CN1C(=O)c2ccccc2N(C)c2nc(Nc3ccc(N4CCC(O)CC4)cc3)ncc21
77

---

# test.target: DAPK2 (human) (UniProt Q9UIK4)
# Sequence (Q9UIK4 whole entry, looked up): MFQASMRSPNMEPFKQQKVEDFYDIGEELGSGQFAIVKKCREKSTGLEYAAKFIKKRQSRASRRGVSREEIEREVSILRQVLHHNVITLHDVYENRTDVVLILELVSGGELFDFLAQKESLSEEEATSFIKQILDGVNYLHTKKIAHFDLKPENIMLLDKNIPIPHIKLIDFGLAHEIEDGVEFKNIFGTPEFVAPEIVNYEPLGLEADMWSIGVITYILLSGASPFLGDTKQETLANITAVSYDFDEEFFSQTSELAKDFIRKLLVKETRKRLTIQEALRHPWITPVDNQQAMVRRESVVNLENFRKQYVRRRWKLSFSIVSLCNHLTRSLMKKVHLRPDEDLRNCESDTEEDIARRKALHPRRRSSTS
# test.method.notes: KINOMEscan competition binding
# condition.info: compound 10.0 µM
property.name: kinase still bound, per cent of control (%)
// note: answer is a bare numeric in %

Record request: kinase still bound, per cent of control value, item O=C1NC(=O)/C(=C/c2c[nH]c(=O)c(-c3ccc(C(=O)Nc4ccc(N5CCNCC5)cc4)cc3)c2)S1
6.4

// repeat for CS(=O)(=O)Nc1ccc(-c2cncc(/C=C3\SC(=N)NC3=O)c2)cc1 and report
14

Next molecule up: N=C1NC(=O)/C(=C/c2ccc(-c3ccc(F)cc3O)o2)S1
4.1

And what about the molecule COc1cc(N2CCN(CCO)CC2)ccc1Nc1ncc2c(n1)N(C1CCCC1)CCC(=O)N2C ?
32

Here is the next molecule: N=C1NC(=O)/C(=C/c2ccc(-c3ccc(C(N)=O)cc3O)o2)S1
24

---

# test.target: CSNK1E (human) (UniProt P49674)
# Sequence (P49674 whole entry, looked up): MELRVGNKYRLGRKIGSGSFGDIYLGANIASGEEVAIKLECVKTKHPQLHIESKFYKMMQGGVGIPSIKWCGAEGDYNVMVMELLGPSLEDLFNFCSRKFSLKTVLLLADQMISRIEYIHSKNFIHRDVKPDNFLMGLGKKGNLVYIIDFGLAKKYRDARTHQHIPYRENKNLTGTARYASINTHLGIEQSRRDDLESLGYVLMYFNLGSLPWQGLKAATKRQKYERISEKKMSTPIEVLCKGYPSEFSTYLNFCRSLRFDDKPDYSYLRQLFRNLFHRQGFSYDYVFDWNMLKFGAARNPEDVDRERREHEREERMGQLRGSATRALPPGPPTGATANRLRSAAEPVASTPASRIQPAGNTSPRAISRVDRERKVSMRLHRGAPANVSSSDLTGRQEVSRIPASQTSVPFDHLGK
# test.method.notes: KINOMEscan competition binding
# condition.info: compound 10.0 µM
Field 'label' (enum: Satisfied / Not satisfied). Set to Satisfied when kinase still bound, per cent of control is strictly under 60%; else Not satisfied.

Please determine if N=C1NC(=O)/C(=C/c2ccc(-c3ccc4c(C(=O)Nc5ccc(N6CCNCC6)cc5)cccc4c3)o2)S1 is below 60% in terms of kinase still bound, per cent of control.
Satisfied

Next compound: COc1cc(N2CCN(C)CC2)ccc1Nc1ncc2c(n1)N(C)c1ccccc1N(C)C2=O
Satisfied

For COc1cc(N2CCC(O)CC2)ccc1Nc1ncc2c(n1)N1CCc3cccc(c31)C(=O)N2C then?
Not satisfied

Same thing, different compound: CN1C(=O)c2ccccc2N(C)c2nc(NS(=O)(=O)c3ccc(N)cc3)ncc21
Not satisfied

// same read-out, input: O=C1NC(=S)S/C1=C\c1ccc(-c2cncc3ccccc23)o1
Satisfied

Repeat with CS(=O)(=O)Nc1ccc(-c2cncc(/C=C3\SC(=N)NC3=O)c2)cc1
Satisfied

Now the same for CN1C(=O)[C@H]2CCC[C@H]2N(C2CCCC2)c2nc(Nc3ccc4ncccc4c3)ncc21
Satisfied

Also COc1cc(N2CCN(CCO)CC2)ccc1Nc1ncc2c(n1)N(C1CCCC1)CCC(=O)N2C ?
Satisfied

Moving on to the next compound: CN1CCN(c2ccc(C(=O)Nc3ncc4c(n3)N(C)c3ccccc3C(=O)N4C)cc2)CC1
Not satisfied

For COc1cc(N2CCN(C)CC2)ccc1Nc1ncc2c(n1)N(C)c1sccc1C(=O)N2C then?
Not satisfied

And for N=C1NC(=O)/C(=C/c2ccc(-c3csc4ccccc34)o2)S1 ?
Satisfied

And what about the compound N=C1NC(=O)/C(=C/c2ccc(-c3cncc4ccccc34)o2)S1 ?
Satisfied

Input Nc1cccc(-c2cc(/C=C3\SC(=O)NC3=O)c[nH]c2=O)c1
Satisfied

Same lookup for CN1C(=O)c2ccccc2N(C)c2nc(Nc3ccc(N4CCC(O)CC4)cc3)ncc21 , please.
Not satisfied

Subsequent entry: O=C1NC(=O)/C(=C/c2c[nH]c(=O)c(-c3ccc(N4CCNCC4)nc3)c2)S1
Satisfied

What about CN1C(=O)[C@H]2CCC[C@H]2N(C2CCCC2)c2nc(Nc3ccc(C(N)=O)cc3)ncc21 ?
Satisfied

---

# test.target: ALK (human)
# test.method.notes: KINOMEscan competition binding
# condition.info: compound 10.0 µM
Give kinase still bound, per cent of control for every item shown.
Numeric only. Scale: %

May I ask what kinase still bound, per cent of control has been recorded for CCOc1cc(N2CCC(O)CC2)ccc1Nc1ncc2c(n1)N(C)c1ccccc1C(=O)N2C ?
29

Now consider COc1cc(N2CCN(C)CC2)ccc1Nc1ncc2c(n1)N(C)c1ccccc1N(C)C2=O and answer again.
11

Now consider COc1cc(C(=O)NC2CCN(C)CC2)ccc1Nc1ncc2c(n1)N(C1CCC(O)CC1)CCC(=O)N2C (stereo not given) .
14

COc1cc(C(=O)NC2CCN(C)CC2)ccc1Nc1ncc2c(n1)N(C1CCCC1)CC(C)C(=O)N2C (stereo not given) ?
20

How about COc1cc(C(=O)NC2CCN(C)CC2)ccc1Nc1ncc2c(n1)N(C1CCCC1)CCC(=O)N2C ?
16

Now consider COc1cc(N2CCC(N3CCN(C)CC3)CC2)ccc1Nc1ncc2c(n1)N(C1CCCC1)C(C)CC(=O)N2C (stereo not given) .
5

Next entry: COc1cc(N2CCC(O)CC2)ccc1Nc1ncc2c(n1)N1CCc3cccc(c31)C(=O)N2C
36

What would you report for CN1CCN(c2ccc(C(=O)Nc3ncc4c(n3)N(C)c3ccccc3C(=O)N4C)cc2)CC1 ?
100

What do we get for COc1cc(N2CCC(C)(O)CC2)ccc1Nc1ncc2c(n1)N(C1CCCC1)CCC(=O)N2C ?
22

Please give the result for COc1cc(N2CCN(C)CC2)ccc1Nc1ncc2c(n1)N(C(C)C)c1ccccc1C(=O)N2C too.
14

Entry to check: COc1cc(C(=O)NC2CCN(C)CC2)ccc1Nc1ncc2c(n1)N(C1CCCC1)C(C)CC(=O)N2C (stereo not given)
6.2

What do you get for N=C1NC(=O)/C(=C/c2ccc(-c3csc4ccccc34)o2)S1 ?
32

One more compound: COc1cc(N2CCN(C)CC2)ccc1Nc1ncc2c(n1)N(C)c1sccc1C(=O)N2C
44

Another: COc1cc(N2CCN(C)CC2)ccc1Nc1ncc2c(n1)N(C)c1ccccc1C(=O)N2C
16

Try the compound COc1cc(N2CCC(O)CC2)ccc1Nc1ncc2c(n1)N(C)c1ccccc1C(=O)N2C
24

Ok, now CN1C(=O)c2ccccc2N(C)c2nc(Nc3ccc(N4CCC(O)CC4)cc3)ncc21
100

Next: O=C1NC(=S)S/C1=C\c1ccc(-c2cccc3ccccc23)o1
19

Same again, this time with CN1C(=O)c2ccccc2N(C)c2nc(NS(=O)(=O)c3ccc(N)cc3)ncc21
100

Same question for O=C1NC(=S)S/C1=C\c1ccc(-c2cncc3ccccc23)o1 please.
30

Lookup COc1cc(N2CCN(CCO)CC2)ccc1Nc1ncc2c(n1)N(C1CCCC1)CCC(=O)N2C
11

For COc1cc(N2CCN(C)CC2)ccc1Nc1ncc2c(n1)N(C(C)C)c1ccccc1C(=O)N2 then?
30

Note, next up: COc1cc(N2CCN(C)CC2)ccc1Nc1ncc2c(n1)N(C1CCCC1)C(C)CC(=O)N2C (stereo not given)
6.6

// next record O=C1NC(=O)/C(=C/c2c[nH]c(=O)c(-c3ccc(N4CCNCC4)nc3)c2)S1
54

Please do the same for COc1cc(N2CCN(C)CC2)ccc1Nc1ncc2c(n1)Nc1ccccc1NC2=O as well.
53

Same again, this time with COc1cc(C(=O)NC2CCN(C)CC2)ccc1Nc1ncc2c(n1)N(CCc1ccccc1)CCC(=O)N2C
22
